# System: MCF7 breast
# ASSAY SUMMARY: NCI tumour cell line growth inhibition, 48 h
READOUT NAME: TGI

// for each molecule in input: emit TGI
1. COc1ccc(C/C=C(\C)CCO)cc1
2. COc1cccc(C2SC(C)C(=O)N2NC(=O)C(O)c2ccccc2)c1 (stereo unspecified)
3. Cc1cn(CCCCOC(=O)NC(CCCN=C(N)N)C(=O)O)c(=O)[nH]c1=O (stereo unspecified)
4. COC(=O)[C@H](Cc1ccccc1)NC(=O)OCC1OC(n2cc(C)c(=O)[nH]c2=O)CC1N=[N+]=[N-] (stereo partly specified)

1: > 100 µM; 2: > 100 µM; 3: > 100 µM; 4: > 100 µM

// for each molecule in input: emit TGI
1. C=C(C)[C@@H]1C/C=C(/COC(C)=O)CC[C@H]2O[C@@]2(C)CC/C=C(\C)CC1
2. FC(F)(F)c1cccc(Oc2ccc(Nc3ncnc4ccc(OCCCN5CCOCC5)cc34)cc2Cl)c1

> 100 µM
5.17 µM
